Ref: patent US7335632B2

Ki values by entry
Target: UniProtKB Q9Y5Z0
Sequence (Q9Y5Z0 63-518): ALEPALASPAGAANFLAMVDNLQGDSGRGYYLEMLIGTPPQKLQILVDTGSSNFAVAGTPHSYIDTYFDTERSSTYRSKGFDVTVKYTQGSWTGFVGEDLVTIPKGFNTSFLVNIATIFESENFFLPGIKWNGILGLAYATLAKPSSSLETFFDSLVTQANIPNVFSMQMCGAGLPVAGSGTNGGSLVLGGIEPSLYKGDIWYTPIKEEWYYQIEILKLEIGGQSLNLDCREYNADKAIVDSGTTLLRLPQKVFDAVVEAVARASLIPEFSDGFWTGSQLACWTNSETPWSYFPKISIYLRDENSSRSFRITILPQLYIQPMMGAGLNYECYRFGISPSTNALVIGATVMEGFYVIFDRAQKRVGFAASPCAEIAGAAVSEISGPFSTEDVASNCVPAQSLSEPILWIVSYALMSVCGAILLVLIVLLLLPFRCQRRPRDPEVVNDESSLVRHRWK

Reference set, count: 3
# input Output measured Ki for this item: CSC[C@H](NC(=O)OCc1nc(C)cs1)C(=O)N[C@H](CC(C)C)[C@@H](O)C[C@@H](C)C(=O)N[C@H](CC(C)C)C(=O)NC(C)C
# output 100 to 1000 nM

# input // fetch Ki given entry CSC[C@H](NC(=O)CCc1nc(C)cs1)C(=O)N[C@H](CC(C)C)[C@@H](O)C[C@@H](C)C(=O)N[C@@H](C(=O)NCC(C)C)C(C)C
# output 100 to 1000 nM

# input Assign Ki to the following record: CSC[C@H](NC(=O)OCc1nc(C)cs1)C(=O)N[C@H](CC(C)C)[C@@H](O)C[C@@H](C)C(=O)N[C@@H](C(=O)NCC(C)C)C(C)C
# output 100 to 1000 nM

More entries:
# input Report Ki, nothing else, for this compound: Cc1nc(COC(=O)N[C@@H](CS(C)(=O)=O)C(=O)N[C@H](CC(C)C)[C@@H](O)C[C@@H](C)C(=O)NCC(C)C)c(C)o1
# output > 1000 nM

# input Please report Ki for the following compound: CCS(=O)(=O)C[C@H](NC(=O)OCc1nc(C)c[s+]1[O-])C(=O)N[C@H](CC(C)C)[C@@H](O)C[C@@H](C)C(=O)N[C@@H](C(=O)NCC(C)C)C(C)C (some centres unmarked)
# output 100 to 1000 nM

# input Assign Ki to the following record: CSC[C@H](NC(=O)OCc1nc(C)cs1)C(=O)N[C@H](CC(C)C)[C@@H](O)C[C@@H](C)C(=O)NCC1CCC(C(=O)OCc2ccccc2)CC1 (some centres unmarked)
# output > 1000 nM

# input Report Ki, nothing else, for this compound: CSC[C@H](NC(=O)CCc1nc(C)oc1C)C(=O)N[C@H](CC(C)C)[C@@H](O)C[C@@H](C)C(=O)N[C@@H](C(=O)NCC(C)C)C(C)C
# output 100 to 1000 nM

# input Please report Ki for the following compound: CCC(C)S(=O)(=O)C[C@H](NC(=O)OCc1nc(C)cs1)C(=O)N[C@H](CC(C)C)[C@@H](O)C[C@@H](C)C(=O)N[C@@H](C(=O)NCC(C)C)C(C)C (some centres unmarked)
# output 100 to 1000 nM

# input Query Ki for CC[C@@H](Cn1nc(C)cc1C)C(=O)N[C@@H](CSC)C(=O)N[C@H](CC(C)C)[C@@H](O)C[C@@H](C)C(=O)N[C@@H](C(=O)NCC(C)C)C(C)C
# output 100 to 1000 nM

# input For the compound CSC[C@H](NC(=O)OCc1noc(C)n1)C(=O)N[C@H](CC(C)C)[C@@H](O)C[C@@H](C)C(=O)N[C@@H](C(=O)NCC(C)C)C(C)C , report Ki.
# output > 1000 nM

# input Answer with reported Ki of Cc1csc(COC(=O)N[C@@H](CS(C)(=O)=O)C(=O)N[C@H](CC(C)C)[C@@H](O)C[C@@H](C)C(=O)N[C@@H](C(=O)NCC(C)C)C(C)C)n1
# output 100 to 1000 nM
